B1: Hairpin Ribozyme (parent)
chain: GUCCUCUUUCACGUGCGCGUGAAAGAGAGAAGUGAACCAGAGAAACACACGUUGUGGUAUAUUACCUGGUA

- Variants of: B1
- run-description: self-cleavage, relative activity (ratio to wild type); higher = more cleavage; co-transcriptional
Entries are sorted into classes by self-cleavage as follows: low bin (below 0.1), mid bin (0.1 to below 0.3), high bin (0.3 or more)

variant-id: C3G U60G
class-label: low bin

variant-id: C6A G29U
class-label: mid bin

variant-id: U8G A36G
class-label: high bin

variant-id: A26C C50G
class-label: mid bin

variant-id: C50U G56C
class-label: mid bin

variant-id: C10G C12A
class-label: high bin

variant-id: G15A A28G
class-label: high bin

variant-id: G32A C48A
class-label: mid bin

variant-id: G1U A36C
class-label: mid bin

variant-id: G1C G21C
class-label: high bin

variant-id: G15C G29U
class-label: mid bin

variant-id: U7A U62G
class-label: low bin

variant-id: C10G G68U
class-label: mid bin

variant-id: A26G U62G
class-label: low bin

variant-id: A22C G29C
class-label: low bin

variant-id: C3U C50U
class-label: mid bin

variant-id: G25C C38A
class-label: low bin

variant-id: C10A A23G
class-label: high bin

variant-id: G25C U60A
class-label: high bin

variant-id: A11C G13U
class-label: high bin

variant-id: G17C U60G
class-label: high bin

variant-id: G51C A64U
class-label: low bin

variant-id: G27U U53A
class-label: mid bin

variant-id: U7G C16U
class-label: high bin

variant-id: C4G G54U
class-label: mid bin

variant-id: U33C G69U
class-label: low bin

variant-id: A47U G69A
class-label: mid bin

variant-id: U14G A64C
class-label: mid bin

variant-id: A49U U55G
class-label: high bin

variant-id: A24C C50G
class-label: high bin

variant-id: G15U C37G
class-label: high bin

variant-id: U20G U52G
class-label: high bin

variant-id: A28C A45U
class-label: mid bin
